Values were extracted from ChEMBL document CHEMBL1275478.

# Assay Name: Central volume of distribution in Sprague-Dawley rat at 1000 mg/kg, iv administered as 3 mins short-term infusion
# Type: ADME, organism-based
# Design: dose 1000 mg/kg, route intravenous
# Condition Context: in vivo
Measured Property: Vd (L/kg)

• NCCC[C@](N)(C(=O)O)C(F)F [EFLORNITHINE, (S)-] = 0.404
• NCCC[C@@](N)(C(=O)O)C(F)F = 0.401

----------
# Assay Name: Central volume of distribution in Sprague-Dawley rat at 375 mg/kg, iv administered as single infusion
# Assay type: ADME, organism-based
# Parameters: dose 375 mg/kg, route intravenous
# Condition Context: in vivo
Measured Property: Vd

- NCCC[C@](N)(C(=O)O)C(F)F [EFLORNITHINE, (S)-]: 0.404 L/kg

----------
# Assay Name: Oral bioavailability in Sprague-Dawley rat at 750 mg/kg, po
# Format: ADME, organism-based
# Condition Context: in vivo, pooled result: one value given for 3 cell lines, strains, targets or settings
Measured Property: bioavailability (%)

- NCCC[C@](N)(C(=O)O)C(F)F [EFLORNITHINE, (S)-]: 41
- NCCCC(N)(C(=O)O)C(F)F (racemic): 62.3
